Data provenance is ChEMBL document CHEMBL1125066.

# measured-target: Interstitial collagenase (Homo sapiens, UniProt P03956)
# Sequence (P03956 whole entry): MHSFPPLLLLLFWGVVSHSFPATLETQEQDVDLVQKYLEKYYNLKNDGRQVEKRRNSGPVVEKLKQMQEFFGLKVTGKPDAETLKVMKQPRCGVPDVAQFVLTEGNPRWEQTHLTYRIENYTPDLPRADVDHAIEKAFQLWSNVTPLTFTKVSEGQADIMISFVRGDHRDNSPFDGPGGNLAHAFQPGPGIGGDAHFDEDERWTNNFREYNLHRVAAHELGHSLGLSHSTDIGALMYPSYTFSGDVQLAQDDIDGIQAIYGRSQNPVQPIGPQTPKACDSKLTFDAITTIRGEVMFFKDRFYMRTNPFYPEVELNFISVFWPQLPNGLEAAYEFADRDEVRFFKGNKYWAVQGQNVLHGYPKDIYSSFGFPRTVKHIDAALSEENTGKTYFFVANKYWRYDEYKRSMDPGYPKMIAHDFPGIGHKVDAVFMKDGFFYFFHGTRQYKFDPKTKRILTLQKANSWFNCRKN
# assay-protocol: Assayed against human skin fibroblast Collagenase using the spectrophotometric assay with the thiol ester substrate at pH 6.5.
pKi: −log10 of the molar value. Square brackets hold non-standard residues; d marks the D form. Peptide text beside a SMILES is read from it. * marks the point of attachment. Arg(NO2) = N=C(NCCC[C@H](N)C(=O)O)N[N+](=O)[O-]; X1 = CCOP(=O)(O)N[C@H](C(=O)*)[C@@H](C)CC
Our labelling divides records by pKi into ranges: bottom end = under 4, midrange = from 4 up to 5, top end = 5 and over

compound	label-class
CCOP(=O)(O)N[C@H](C(=O)NC(Cc1ccc(OCc2ccccc2)cc1)C(=O)NCC(=O)O)[C@@H](C)CC (stereo partly drawn)	top end
CCOP(=O)(O)N[C@H](C(=O)NC(Cc1ccc(OCc2ccccc2)cc1)C(=O)NC)[C@@H](C)CC (stereo partly drawn)	midrange
CCOP(=O)(O)N[C@H](C(=O)N[C@@H](Cc1ccc(OCC(=O)N[C@@H](CCCCN)C(=O)O)cc1)C(=O)NCC(=O)O)[C@@H](C)CC	midrange
CCOP(=O)(O)N[C@@H](CC(C)C)C(=O)N[C@@H](C)C(=O)NCC(=O)O	bottom end
CCOP(=O)(O)N[C@H](C(=O)N[C@@H](Cc1ccccc1)C(=O)NCC(=O)O)[C@@H](C)CC	midrange
CCOP(=O)(O)N[C@H](C(=O)N[C@@H](C)C(=O)NCC(=O)N[C@@H](CCC(=O)O)C(=O)N[C@@H](CCCNC(=N)N[N+](=O)[O-])C(=O)NCC(=O)O)[C@@H](C)CC (X1-AGE[Arg(NO2)]G-OH)	bottom end
CCOP(=O)(O)N[C@H](C(=O)N[C@@H](Cc1ccc(OCC(=O)NCc2ccccc2)cc1)C(=O)NCC(=O)O)[C@@H](C)CC	midrange
CCOP(=O)(O)N[C@H](C(=O)N[C@@H](CC(C)C)C(=O)NCC(=O)O)[C@@H](C)CC	midrange
CCOP(=O)(O)N[C@H](C(=O)N[C@@H](Cc1ccc(OCC(=O)O)cc1)C(=O)NCC(=O)O)[C@@H](C)CC	midrange
CCOP(=O)(O)N[C@H](C(=O)NC(Cc1ccc(OC)cc1)C(=O)NC)[C@@H](C)CC (stereo partly drawn)	midrange
CCOP(=O)(O)N[C@H](C(=O)NC(Cc1ccc(OC2CCCCO2)cc1)C(=O)NCC(=O)O)[C@@H](C)CC (stereo partly drawn)	midrange
CCOP(=O)(O)N[C@H](C(=O)N[C@@H](Cc1ccc(OCC(=O)N(Cc2ccccc2)Cc2ccccc2)cc1)C(=O)NCC(=O)O)[C@@H](C)CC	midrange
CCOP(=O)(O)N[C@H](C(=O)N[C@@H](C)C(=O)NCC(=O)N[C@@H](CCC(=O)O)C(=O)N[C@@H](CCCN=C(N)N)C(=O)NCC(=O)O)[C@@H](C)CC (X1-AGERG-OH)	bottom end
CCOP(=O)(O)N[C@H](C(=O)N[C@@H](Cc1ccc(O)cc1)C(=O)NCC(=O)O)[C@@H](C)CC	midrange
CCOP(=O)(O)N[C@H](C(=O)N[C@@H](Cc1ccc(N)cc1)C(=O)NCC(=O)O)[C@@H](C)CC	midrange
CCOP(=O)(O)N[C@H](C(=O)N[C@@H](C)C(=O)NCC(=O)N[C@@H](CCC(N)=O)C(=O)N[C@@H](CCCNC(=N)N[N+](=O)[O-])C(=O)O)[C@@H](C)CC (X1-AGQ[Arg(NO2)]-OH)	bottom end
CCOP(=O)(O)N[C@H](C(=O)N[C@@H](C)C(=O)NCC(=O)N[C@@H](CCC(N)=O)C(=O)N[C@@H](CCCNC(=N)N)C(=O)NCC(=O)O)[C@@H](C)CC (X1-AGQRG-OH)	bottom end
CCOP(=O)(O)N[C@H](C(=O)N[C@@H](C)C(=O)NCC(=O)N[C@@H](CC(C)C)C(=O)O)[C@@H](C)CC	bottom end
CCOP(=O)(O)N[C@H](C(=O)N[C@@H](Cc1ccc(OCc2cc(Cl)cc(Cl)c2)cc1)C(=O)NCC(=O)O)[C@@H](C)CC	top end
CCOP(=O)(O)N[C@H](C(=O)NC(Cc1c[nH]c2ccccc12)C(=O)NC)[C@@H](C)CC (stereo partly drawn)	top end
